Below, each of the compounds is paired with its reported combination Emax value.
Tested on: CCRF-CEM (T-Lymphoblastic Leukemia)
assay text: combination Emax (second highest fraction inhibited in the dose matrix, 72 h); higher = more inhibition; extreme values may be limits of the assay
Reply briefly: the number, and no unit.

Here's what some known entries look like.
Cc1c2c(nn1C)CSCc1cc(n(C)n1)CSc1cc(c3ccccc3c1)OCCCc1c(C(=O)O)n(C)c3c-2c(Cl)ccc13 [AZD5991] + C=CCn1c(=O)c2cnc(Nc3ccc(N4CCN(C)CC4)cc3)nc2n1-c1cccc(C(C)(C)O)n1 [AZD1775] (first compound max 1 µM, partner max 1 µM) ... 1
Cc1c2c(nn1C)CSCc1cc(n(C)n1)CSc1cc(c3ccccc3c1)OCCCc1c(C(=O)O)n(C)c3c-2c(Cl)ccc13 [AZD5991] + CCN(CCO)CCCOc1ccc2c(Nc3cc(CC(=O)Nc4cccc(F)c4)[nH]n3)ncnc2c1 [AZD2811] (first compound max 1 µM, 7x7, partner max 1 µM) ... 0.999

Query NC1(C(=O)N[C@@H](CCO)c2ccc(Cl)cc2)CCN(c2ncnc3[nH]ccc23)CC1 [Capivasertib] + CC(C)n1c(=O)n(C)c2cnc3cc(F)c(-c4ccc(OCCCN5CCCCC5)nc4)cc3c21 [AZD1390] (first compound max 10 µM, 7x7, partner max 0.3 µM) yields combination Emax of 0.457

Summary for this compound, COc1cccc(OCCCN)c1-c1cc(Nc2cnc(C#N)cn2)n[nH]1 [Prexasertib] + CCc1c2c(nc3ccc(O)cc13)-c1cc3c(c(=O)n1C2)COC(=O)[C@]3(O)CC [SN-38] (first compound max 1 µM, 7x7, partner max 0.3 µM) : combination Emax is 1

Data origin: the supplement of paper PMC11061612
